Reported values of TGI for individual entries
tested on: OVCAR-3 ovarian; assay: NCI tumour cell line growth inhibition, 48 h

# compound, TGI
measured = [
    ("COC(=O)[C@@H]1CN(C(C)=O)C(=O)N1C(=O)OCc1ccccc1", "> 100 µM"),
    ("Cc1cc(O)ccc1C1=NN(c2ccc(S(C)(=O)=O)cc2)C(=O)CC1", "9.44 µM"),
    ("CCOC(=O)C(C)NC(=O)C(C)NC(=O)C(C)NC(=O)C(C)NC(=O)C(C)NC(=O)OCc1ccccc1 (centres undefined)", "> 100 µM"),
    ("O=C(c1ccccc1)c1ccc(-n2c3ccccc3c3ccc4c(c32)C(=O)C=CC4=O)cc1", "20.8 µM"),
    ("O=C(c1ccccc1)N1C2CCC1C(C(F)(F)F)=C2C(F)(F)F", "> 100 µM"),
    ("CN(Cc1cc(Br)cc(Br)c1O)Cc1cc(Br)cc(Br)c1O", "11.2 µM"),
    ("CC(NC(=O)C(N)CC(=O)O)NC(=O)C1CCC1 (centres undefined)", "> 100 µM"),
    ("Nc1nc2c(s1)CCc1c-2c(Br)n(Cc2ccccc2)c1Br", "13.8 µM"),
]

Lab note: C[C@H](Nc1ncnc2nc[nH]c12)c1cc2ccc(F)cc2nc1-c1ccccn1 gave TGI of > 100 µM

Lab note: COC(=O)c1c(O)ccc2c1c1c(n2Cc2ccc(Cl)cc2Cl)C(=O)c2ccccc2C1=O gave TGI of 27.2 µM

Lab note: CCCCCCCCCCCCCCCCOCC(Cl)COP(=O)(O)OP(=O)(O)OCC1OC(n2cc(C)c(=O)[nH]c2=O)CC1O (centres undefined) gave TGI of > 100 µM
